Where do these numbers come from? They come from patent US5486604A.

- Target System: cADPR binding site
- Protocol Text: Specific binding of [32P]cADPR to sea urchin egg microsomes (filtration assay)
- Measurement Setup: dialyzed L. pictus homogenates, 0-5 C, no ATP; read-out: apparent affinity constant derived from the binding data
pKd: −log10 of the molar value.
Observation Type: pKd

Task: # lookup: pKd of N=c1c2ncn3c2ncn1[C@@H]1O[C@H](COP(=O)(O)OP(=O)(O)OC[C@H]2O[C@@H]3[C@H](O)[C@@H]2O)[C@@H](O)[C@H]1O [cADPR, Cyclic ADP-ribose, reference compound]
Result: ~9.00
